- TARGET_ENTITY: T1, Acro SARS-CoV-2 (COVID-19) S1 protein (SARS-CoV-2, UniProt P0DTC2 16-685)
- T1 construct: also called SARS-CoV-2 S1
- ASSAY_NOTES: SPR
OUTCOME_MEASURE: log10 Kd (log10 of the value in nM)
Recall that a logarithmic scale is used here: each number is log10 of Kd in nM.

I'm hoping you can list log10 Kd for every binder here, please.
1. variant 6-79 (Fc fusion) VHH: EVQLVESGGGLVQPGGSLRLSCAASGSISSIDYMGWFRQAPGKEREGVSWISSSDGSTYYADSVKGRFTISADNSKNTAYLQMNSLKPEDTAVYYCARSPSFSQIYYYYYMDVWGQGTLVTVSS
2. variant 6-51 (Fc fusion) VHH: EVQLVESGGGLVQPGGSLRLSCAASGYTYSSYVMGWFRQAPGKEREFVAAISRFGSTYYADSVKGRFTISADNSKNTAYLQMNSLKPEDTAVYYCARDSGEHFWDSGYIDHWGQGTLVTVSS
3. variant 6-68 (Fc fusion) VHH: EVQLVESGGGLVQPGGSLRLSCAASGFTLSDRAMGWFRQAPGKEREYVAHITAGGLSNYADSVKGRFTISADNSKNTAYLQMNSLKPEDTAVYYCVHLASQTGAGYFDLWGQGTLVTVSS

[2.20, 1.55, 2.01]

// data source = patent US20210355194A1
